Listing of entries alongside the reported Activity.
Target: Growth hormone secretagogue receptor type 1 (Homo sapiens)
Assay: Agonist activity at human GHSR1a receptor expressed in CHO cells assessed as intracellular calcium mobilization at 10 uM relative to ghrelin
Type: functional, cell-based
readoutKind: Activity (%)

>>> df
                                givensmiles  readoutkind  endpointvalue
0  COc1ccc(Cn2c(CCc3c[nH]c4ccccc34)nnc2[C@@H](Cc2ccccc2)NC(=O)C(C)(C)N)cc1     Activity              6
1  COc1ccc(Cn2c(CCc3c[nH]c4ccccc34)nnc2[C@H](Cc2c[nH]c3ccccc23)NC(=O)C2CCNCC2)cc1     Activity            100
2  COc1ccc(Cn2c(CCc3c[nH]c4ccccc34)nnc2[C@H](Cc2c[nH]c3ccccc23)NC(=O)C(C)(C)N)c(OC)c1     Activity              4
3  COc1ccc(Cn2c(CCc3c[nH]c4ccccc34)nnc2[C@@H](CC(=O)OCc2ccccc2)NC(=O)C(C)(C)N)cc1     Activity              5
4  COc1ccc(Cn2c(CCc3c[nH]c4ccccc34)nnc2[C@@H](Cc2c[nH]c3ccccc23)NC(=O)C2CCOCC2)cc1     Activity              2
5  COc1ccc(Cn2c(Cc3ccccc3)nnc2[C@H](Cc2c[nH]c3ccccc23)NC(=O)C(C)(C)N)c(OC)c1     Activity             11

====

Molecular target: Growth hormone secretagogue receptor type 1 (Homo sapiens, UniProt Q92847)
Sequence (Q92847 whole entry): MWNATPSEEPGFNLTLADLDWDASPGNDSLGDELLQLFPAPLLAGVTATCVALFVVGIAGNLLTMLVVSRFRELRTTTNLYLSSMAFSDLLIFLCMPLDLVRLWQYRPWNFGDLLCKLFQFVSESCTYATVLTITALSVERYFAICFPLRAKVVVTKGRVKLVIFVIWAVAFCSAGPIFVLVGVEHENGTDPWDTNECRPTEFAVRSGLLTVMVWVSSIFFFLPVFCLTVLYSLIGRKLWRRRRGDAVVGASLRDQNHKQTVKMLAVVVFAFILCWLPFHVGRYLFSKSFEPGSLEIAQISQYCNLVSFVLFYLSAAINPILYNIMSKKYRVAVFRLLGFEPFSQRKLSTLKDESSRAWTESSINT
Test: Agonist activity at human GHSR1a receptor expressed in CHO cells assessed as intracellular calcium mobilization at 10 uM relative to ghrelin
Format: functional, cell-based
readoutKind: Activity (%)

                                 givensmiles  readoutkind  endpointvalue
 0  COc1ccc(Cn2c(CCc3c[nH]c4ccccc34)nnc2[C@@H](Cc2c[nH]c3ccccc23)NC(=O)c2ccccn2)cc1     Activity              0
 1  COc1ccc(Cn2c(CCc3c[nH]c4ccccc34)nnc2[C@@H](Cc2c[nH]c3ccccc23)NC(=O)C(C)(C)N)c(OC)c1     Activity              0
 2  COc1ccc(Cn2c(Cc3ccccc3)nnc2[C@@H](Cc2c[nH]c3ccccc23)NC(=O)C(C)(C)N)cc1     Activity              9
 3  COc1ccc(Cn2c(CCc3c[nH]c4ccccc34)nnc2[C@H](Cc2c[nH]c3ccccc23)NC(=O)[C@@H]2CCCN2)cc1     Activity              0
 4  COc1ccc(Cn2c(CCc3ccccc3)nnc2[C@H](Cc2c[nH]c3ccccc23)NC(=O)C(C)(C)N)c(OC)c1     Activity              4
 5  COc1ccc(Cn2c(Cc3ccccc3)nnc2[C@H](Cc2c[nH]c3ccccc23)NC(=O)C(C)(C)N)cc1     Activity              5
 6  COc1ccc(Cn2c(Cc3ccccc3)nnc2[C@@H](Cc2c[nH]c3ccccc23)NC(=O)C(C)(C)N)c(OC)c1     Activity              0
 7  COc1ccc(Cn2c(CCc3ccccc3)nnc2[C@@H](Cc2c[nH]c3ccccc23)NC(=O)C(C)(C)N)c(OC)c1     Activity              0
 8  COc1ccc(Cn2c(CCc3ccccc3)nnc2[C@@H](Cc2c[nH]c3ccccc23)NC(=O)C(C)(C)N)cc1     Activity              2
 9  COc1ccc(Cn2c(Cc3ccccc3)nnc2[C@@H](Cc2ccccc2)NC(=O)C(C)(C)N)cc1     Activity              6
10  COc1ccc(Cn2c(CCc3c[nH]c4ccccc34)nnc2[C@H](Cc2c[nH]c3ccccc23)NC(=O)C2CCOCC2)cc1     Activity              0
11  COc1ccc(Cn2c(CCc3c[nH]c4ccccc34)nnc2[C@@H](COCc2ccccc2)NC(=O)C(C)(C)N)cc1     Activity              0
12  COc1ccc(Cn2c(CCc3ccccc3)nnc2[C@H](Cc2c[nH]c3ccccc23)NC(=O)C(C)(C)N)cc1     Activity              0
13  COc1ccc(Cn2c(CCCc3ccccc3)nnc2[C@@H](Cc2c[nH]c3ccccc23)NC(=O)C(C)(C)N)cc1     Activity              0
14  COc1ccc(Cn2c(CCc3c[nH]c4ccccc34)nnc2[C@H](Cc2c[nH]c3ccccc23)NC(=O)C(C)(C)N)cc1     Activity             31
15  COc1ccc(Cn2c(CCCc3ccccc3)nnc2[C@H](Cc2c[nH]c3ccccc23)NC(=O)C(C)(C)N)cc1     Activity             17

====

Biological target: Growth hormone secretagogue receptor type 1 (Homo sapiens, UniProt Q92847)
Assay: Agonist activity at human GHSR1a receptor expressed in CHO cells assessed as intracellular calcium mobilization
readoutKind: EC50 (nM)

                                givensmiles  units  endpointvalue
0  COc1ccc(Cn2c(CCc3c[nH]c4ccccc34)nnc2[C@H](Cc2c[nH]c3ccccc23)NC(=O)C2CCOCC2)cc1     nM             24
1  COc1ccc(Cn2c(CCc3c[nH]c4ccccc34)nnc2[C@H](Cc2c[nH]c3ccccc23)NC(=O)C2CCNCC2)cc1     nM             32
2  COc1ccc(Cn2c(CCc3c[nH]c4ccccc34)nnc2[C@@H](Cc2c[nH]c3ccccc23)NC(=O)C2CCOCC2)cc1     nM             24

====

Molecular target: Growth hormone secretagogue receptor type 1 (Homo sapiens)
Assay: Antagonist activity at human GHSR1a receptor expressed in CHO cells assessed as reduction of ghrelin-induced intracellular calcium mobilization
Type: functional, cell-based
pIC50: −log10 of the molar value.
// 0 strictly below 6 in pIC50; 1 otherwise

>>> df
                                givensmiles  grouplabel
0  COc1ccc(Cn2c(CCc3ccccc3)nnc2[C@@H](Cc2c[nH]c3ccccc23)NC(=O)C(C)(C)N)cc1           1
1  COc1ccc(Cn2c(CCc3c[nH]c4ccccc34)nnc2[C@@H](Cc2c[nH]c3ccccc23)NC(=O)C(C)(C)N)cc1           1
2  COc1ccc(Cn2c(CCCc3ccccc3)nnc2[C@@H](Cc2c[nH]c3ccccc23)NC(=O)C(C)(C)N)cc1           1
3  COc1ccc(Cn2c(CCc3c[nH]c4ccccc34)nnc2[C@H](Cc2c[nH]c3ccccc23)NC(=O)C(C)(C)N)c(OC)c1           0
4  COc1ccc(Cn2c(CCc3c[nH]c4ccccc34)nnc2[C@@H](Cc2c[nH]c3ccccc23)NC(=O)C(C)(C)N)c(OC)c1           1

====

Target: Growth hormone secretagogue receptor type 1 (Homo sapiens, UniProt Q92847)
Assay: Displacement of [125I]His9-ghrelin from human GHSR1a receptor expressed in LLC PK1 cells
Type: cell-based
readoutKind: IC50 (nM)

>>> print(df.to_string())
                                 givensmiles  readoutkind  rel  endpointvalue
 0  COc1ccc(Cn2c(CCc3c[nH]c4ccccc34)nnc2[C@H](Cc2c[nH]c3ccccc23)NC(=O)C(C)(C)N)cc1         IC50    =            140
 1  COc1ccc(Cn2c(Cc3ccccc3)nnc2[C@@H](Cc2ccccc2)NC(=O)C(C)(C)N)cc1         IC50    >           1000
 2  COc1ccc(Cn2c(CCc3ccccc3)nnc2[C@H](Cc2c[nH]c3ccccc23)NC(=O)C(C)(C)N)c(OC)c1         IC50    =            450
 3  COc1ccc(Cn2c(CCCc3ccccc3)nnc2[C@H](Cc2c[nH]c3ccccc23)NC(=O)C(C)(C)N)cc1         IC50    >           1000
 4  COc1ccc(Cn2c(Cc3ccccc3)nnc2[C@H](Cc2c[nH]c3ccccc23)NC(=O)C(C)(C)N)cc1         IC50    >           1000
 5  COc1ccc(Cn2c(CCc3ccccc3)nnc2[C@H](Cc2c[nH]c3ccccc23)NC(=O)C(C)(C)N)cc1         IC50    >           1000
 6  COc1ccc(Cn2c(CCc3c[nH]c4ccccc34)nnc2[C@H](Cc2c[nH]c3ccccc23)NC(=O)C2CCNCC2)cc1         IC50    =              7
 7  COc1ccc(Cn2c(CCc3c[nH]c4ccccc34)nnc2[C@@H](COCc2ccccc2)NC(=O)C(C)(C)N)cc1         IC50    =            800
 8  COc1ccc(Cn2c(Cc3ccccc3)nnc2[C@H](Cc2c[nH]c3ccccc23)NC(=O)C(C)(C)N)c(OC)c1         IC50    >           1000
 9  COc1ccc(Cn2c(CCc3c[nH]c4ccccc34)nnc2[C@H](Cc2c[nH]c3ccccc23)NC(=O)[C@@H]2CCCN2)cc1         IC50    =            650
10  COc1ccc(Cn2c(CCc3c[nH]c4ccccc34)nnc2[C@@H](CC(=O)OCc2ccccc2)NC(=O)C(C)(C)N)cc1         IC50    =            450
11  COc1ccc(Cn2c(CCc3c[nH]c4ccccc34)nnc2[C@@H](Cc2c[nH]c3ccccc23)NC(=O)c2ccccn2)cc1         IC50    =              8
12  COc1ccc(Cn2c(CCc3c[nH]c4ccccc34)nnc2[C@H](Cc2c[nH]c3ccccc23)NC(=O)C2CCOCC2)cc1         IC50    =           1300
13  COc1ccc(Cn2c(CCc3c[nH]c4ccccc34)nnc2[C@@H](Cc2ccccc2)NC(=O)C(C)(C)N)cc1         IC50    =            200
14  COc1ccc(Cn2c(CCc3c[nH]c4ccccc34)nnc2[C@@H](Cc2c[nH]c3ccccc23)NC(=O)C2CCOCC2)cc1         IC50    =             45
